SYSTEM: neutrophil elastase in human plasma (Homo sapiens, UniProt P08246)
Construct: The stimulated blood is centrifuged to generate the neutrophil elastase enriched plasma
Sequence (P08246 30-267): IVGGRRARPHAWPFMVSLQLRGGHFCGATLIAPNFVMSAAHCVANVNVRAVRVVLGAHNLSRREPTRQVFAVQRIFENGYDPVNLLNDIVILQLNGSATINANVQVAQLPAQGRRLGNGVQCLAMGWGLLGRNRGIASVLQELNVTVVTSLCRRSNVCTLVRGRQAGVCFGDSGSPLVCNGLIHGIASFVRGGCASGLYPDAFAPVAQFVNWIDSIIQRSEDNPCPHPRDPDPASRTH
PROTOCOL TEXT: Neutrophil elastase inhibitory activity in human plasma
CONDITION PARAMETERS: zymosan-stimulated human plasma, substrate MeOSuc-Ala-Ala-Pro-Val-AMC 250 μM
pEC50: −log10 of the molar value.

MOLECULE: CN1C(=O)N(c2cccc(C(F)(F)F)c2)C2=C(C(=O)CCC2)C1c1ccc(C#N)cc1S(=O)(=O)CCCO (stereo not drawn)
SYSTEM: neutrophil elastase in human plasma (Homo sapiens, UniProt P08246)
QUALIFIER SIGN: =
pEC50: 8.70
//
MOLECULE: CS(=O)(=O)c1cc(C#N)ccc1C1C2=C(CCCC2=O)N(c2cccc(C(F)(F)F)c2)C(=O)N1CCO (stereo not drawn)
SYSTEM: neutrophil elastase in human plasma (Homo sapiens, UniProt P08246)
QUALIFIER SIGN: =
pEC50: 9.00
//
MOLECULE: CN1C(=O)N(c2cccc(C(F)(F)F)c2)C2=C(C(=O)CCC2)[C@H]1c1ccc(C#N)cc1[S+](C)[O-] (single isomer, unassigned)
SYSTEM: neutrophil elastase in human plasma (Homo sapiens, UniProt P08246)
QUALIFIER SIGN: =
pEC50: 9.00
//
MOLECULE: CS(=O)(=O)c1cc(C#N)ccc1C1C2=C(CCCC2=O)N(c2cccc(C(F)(F)F)c2)C(=O)N1CC1COC1 (single isomer, unassigned)
SYSTEM: neutrophil elastase in human plasma (Homo sapiens, UniProt P08246)
QUALIFIER SIGN: =
pEC50: 9.00
//
MOLECULE: CN1C(=O)N(c2cccc(C(F)(F)F)c2)C2=C(C(=O)CCC2)C1c1ccc(C#N)cc1S(=O)(=O)CCO (stereo not drawn)
SYSTEM: neutrophil elastase in human plasma (Homo sapiens, UniProt P08246)
QUALIFIER SIGN: =
pEC50: 8.70
//
MOLECULE: CN1C(=O)N(c2cccc(C(F)(F)F)c2)C2=C(C(=O)CCC2)C1c1ccc(C#N)cc1[S+](C)[O-] (single isomer, unassigned)
SYSTEM: neutrophil elastase in human plasma (Homo sapiens, UniProt P08246)
QUALIFIER SIGN: >
pEC50: 9.00

###

SYSTEM: Human neutrophil elastase (Homo sapiens, UniProt P08246)
Sequence (P08246 30-247 limits assumed): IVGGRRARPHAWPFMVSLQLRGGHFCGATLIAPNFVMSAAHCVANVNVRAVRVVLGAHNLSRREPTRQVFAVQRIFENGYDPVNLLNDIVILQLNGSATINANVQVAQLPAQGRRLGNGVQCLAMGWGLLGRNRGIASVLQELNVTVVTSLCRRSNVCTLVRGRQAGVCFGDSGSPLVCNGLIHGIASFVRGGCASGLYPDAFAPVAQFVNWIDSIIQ
PROTOCOL TEXT: Human Neutrophil Elastase Assay
CONDITION PARAMETERS: substrate MeOSuc-Ala-Ala-Pro-Val-AMC 250 μM, pH 7.5, room temperature
Excerpt: Human Neutrophil Elastase Assay

COMPOUND: CN1C(=O)N(c2cccc(C(F)(F)F)c2)C2=C(C(=O)CCC2)C1c1ccc(C#N)cc1[S+](C)[O-] (single isomer, unassigned) [Example 2.1A]
SYSTEM: Human neutrophil elastase (Homo sapiens, UniProt P08246)
MEASUREMENT UNIT: nM
QUALIFIER SIGN: <
IC50: 1

COMPOUND: N#Cc1ccc(C2NC(=O)N(c3cccc(C(F)(F)F)c3)C3=C2C(=O)CCC3)c(S(=O)(=O)CCCO)c1 (stereo not drawn)
SYSTEM: Human neutrophil elastase (Homo sapiens, UniProt P08246)
MEASUREMENT UNIT: nM
QUALIFIER SIGN: =
IC50: 5.6

COMPOUND: N#Cc1ccc(C2NC(=O)N(c3cccc(C(F)(F)F)c3)C3=C2C(=O)CCC3)c(S(=O)(=O)CCO)c1 (stereo not drawn)
SYSTEM: Human neutrophil elastase (Homo sapiens, UniProt P08246)
MEASUREMENT UNIT: nM
QUALIFIER SIGN: =
IC50: 7

COMPOUND: CN1C(=O)N(c2cccc(C(F)(F)F)c2)C2=C(C(=O)CCC2)C1c1ccc(C#N)cc1S(=O)(=O)CCO (stereo not drawn)
SYSTEM: Human neutrophil elastase (Homo sapiens, UniProt P08246)
MEASUREMENT UNIT: nM
QUALIFIER SIGN: =
IC50: 1.1

COMPOUND: COCCS(=O)(=O)c1cc(C#N)ccc1C1NC(=O)N(c2cccc(C(F)(F)F)c2)C2=C1C(=O)CCC2 (stereo not drawn)
SYSTEM: Human neutrophil elastase (Homo sapiens, UniProt P08246)
MEASUREMENT UNIT: nM
QUALIFIER SIGN: =
IC50: 11

COMPOUND: CNC(=O)N1C(=O)N(c2cccc(C(F)(F)F)c2)C2=C(C(=O)CCC2)C1c1ccc(C#N)cc1[S+](C)[O-] (single isomer, unassigned) [Example 3.1]
SYSTEM: Human neutrophil elastase (Homo sapiens, UniProt P08246)
MEASUREMENT UNIT: nM
QUALIFIER SIGN: <
IC50: 1
